Below is a list of entries, each paired with its recorded TD50 value.
assay: Neurotoxicity in ip dosed albino mouse minimal clonic seizure model assessed as minimal motor impairment by rotorod test; assay type: toxicity, organism-based; settings: in vivo
Give the number; mg/kg is assumed, so skip it.

O=C1NC(=O)[C@@H]2CCCN2[C@H]1c1ccc(Cl)cc1
212

// switching to the query molecule
Recorded TD50 for Cc1ccc([C@H]2C(=O)NC(=O)[C@@H]3CCCN23)cc1 , please?
167

====

system: Mus musculus; test: Neurotoxicity in albino mouse assessed as minimal motor impairment at 100 mg/kg, ip after 0.5 hrs by rotorod test; format: toxicity, organism-based; design: dose 100 mg/kg, route intraperitoneal; conditions: in vivo
readout name: Activity

Recorded Activity, per entry:
O=C1NC(=O)[C@@H]2CCCN2[C@H]1c1ccco1
Toxic
COc1cccc([C@H]2C(=O)NC(=O)[C@@H]3CCCN23)c1
Non-toxic
COc1ccccc1[C@H]1C(=O)NC(=O)[C@@H]2CCCN12
Non-toxic
O=C1NC(=O)[C@@H]2CCCN2[C@H]1c1cc(Cl)cc(Cl)c1
Non-toxic
O=C1NC(=O)[C@@H]2CCCN2[C@H]1c1cccc2ccccc12
Non-toxic

Then this molecule:
Form field: reported Activity of O=C1NC(=O)[C@@H]2CCCN2[C@H]1c1cccs1
Non-toxic

====

tested on: Mus musculus; test: Neurotoxicity in albino mouse minimal clonic seizure model assessed as minimal motor impairment at 100 mg/kg, ip after 0.25 hrs by rotorod test; type: toxicity, organism-based; parameters: dose 100 mg/kg, route intraperitoneal; settings: in vivo
readout name: Activity

Here's what some known entries look like.
COc1ccccc1[C@H]1C(=O)NC(=O)[C@@H]2CCCN12
Non-toxic
O=C1NC(=O)[C@@H]2CCCN2[C@H]1c1cccc(Cl)c1
Toxic
O=C1NC(=O)[C@@H]2CCCN2[C@H]1c1cc(Cl)cc(Cl)c1
Non-toxic
Cc1ccccc1[C@H]1C(=O)NC(=O)[C@@H]2CCCN12
Non-toxic

Please find the next compound below.
Enter reported Activity observed with Mus musculus for Cc1cccc([C@H]2C(=O)NC(=O)[C@@H]3CCCN23)c1
Toxic

====

test system: Mus musculus; experiment: Neurotoxicity in albino mouse minimal clonic seizure model assessed as minimal motor impairment at 100 mg/kg, ip after 0.5 hrs by rotorod test; format: toxicity, organism-based; parameters: dose 100 mg/kg, route intraperitoneal; settings: in vivo
readout name: Activity

// worked examples, Activity included
Cc1cccc([C@H]2C(=O)NC(=O)[C@@H]3CCCN23)c1
Non-toxic
O=C1NC(=O)[C@@H]2CCCN2[C@H]1c1cc(Cl)cc(Cl)c1
Non-toxic
Cc1ccccc1[C@H]1C(=O)NC(=O)[C@@H]2CCCN12
Non-toxic
O=C1NC(=O)[C@@H]2CCCN2[C@H]1c1cccc(Cl)c1
Toxic

# input for lookup
Fill in: Activity of COc1ccccc1[C@H]1C(=O)NC(=O)[C@@H]2CCCN12 is ___
Non-toxic

====

tested on: Mus musculus; assay: Anticonvulsant activity in ip dosed albino mouse assessed as time of peak effect for protection against 6 Hz psychomotor seizure by minimal clonic seizure test; format: functional
readout name: Time (h)
Express the result in h but write the number alone.

Illustrative cases are given below, each with its answer.
Cc1ccc([C@H]2C(=O)NC(=O)[C@@H]3CCCN23)cc1
0.25
CCC1(C)CC(=O)NC1=O (centres undefined) [ETHOSUXIMIDE]
0.25
CC[C@@H](C(N)=O)N1CCCC1=O
1

May I ask what Time has been recorded for O=C1NC(=O)[C@@H]2CCCN2[C@H]1c1ccc(Cl)cc1 ?
0.25

====

tested on: Mus musculus; assay: Neurotoxicity in albino mouse assessed as minimal motor impairment at 100 mg/kg, ip after 0.25 hrs by rotorod test; type: toxicity, organism-based; parameters: dose 100 mg/kg, route intraperitoneal; conditions: in vivo
readout name: Activity

Example entries and their recorded answers appear below.
COc1cccc([C@H]2C(=O)NC(=O)[C@@H]3CCCN23)c1
Non-toxic
Cl.O=C1NC(=O)[C@@H]2CCCN2[C@H]1c1ccccc1Cl
Non-toxic
COc1ccccc1[C@H]1C(=O)NC(=O)[C@@H]2CCCN12
Non-toxic
Cc1cccc([C@H]2C(=O)NC(=O)[C@@H]3CCCN23)c1
Toxic
COc1ccc([C@H]2C(=O)NC(=O)[C@@H]3CCCN23)cc1
Non-toxic

# Activity lookup, item O=C1NC(=O)[C@@H]2CCCN2[C@H]1c1ccc(Cl)c(Cl)c1
Non-toxic

Would you mind telling me what Activity value was observed for O=C1NC(=O)[C@@H]2CCCN2[C@H]1c1cc(Cl)cc(Cl)c1 ?
Non-toxic

I am curious: what Activity value has been reported for O=C1NC(=O)[C@@H]2CCCN2[C@H]1c1ccc(Cl)cc1 ?
Non-toxic

Item under review: O=C1NC(=O)[C@@H]2CCCN2[C@H]1c1cccs1 . Reported Activity?
Toxic

Value lookup for Activity; key = Cc1ccc([C@H]2C(=O)NC(=O)[C@@H]3CCCN23)cc1
Non-toxic

For the compound O=C1NC(=O)[C@@H]2CCCN2[C@H]1c1cccc(Cl)c1 , what Activity is on record?
Toxic
